# System: MS2 coat protein
# EXPERIMENT: apparent KD of MS2 coat protein, switch OFF state (with FMN for OFF switches, without FMN for ON switches); designed switch direction (-1 OFF switch, 1 ON switch): 1; higher = weaker reporter binding
# TEST_CONDITIONS: FMN input: 0 or 200 uM; Eterna round: R93 (includes R88 designs)
RECORDED_ENDPOINT: apparent KD of MS2 coat protein (nM)
Please give a number only; it is taken to be in nM.

>  <SEQUENCE_STRING>
AAAAAACAUGAGGAUCACCCAUGUGAGAACAAGGGAGGAUAUACGAAGACGAAAGUCGAAGUAGAAGGCCUAAAAA [Garnet 81]

>  <apparent KD of MS2 coat protein (nM)>
46.6

$$$$

### Prompt Report apparent KD of MS2 coat protein under test system MS2 coat protein for GAAAAACAUGAGGAUCACCCAUGUAGAAAAAUGGGAGGAUAUACAAAGACGAAAGUCAAAGUAGAAGGCCUGAAAG [same state 77% mat/eli mod] .
### Response 74.4

### Prompt Report apparent KD of MS2 coat protein under test system MS2 coat protein for AACAAUCUAUCUGAGGAUAUGUGUCGAAAGACAUGAGGAUCACCCAUGUGAAAACAUGAAAAGACACAGAAGGCAGAUAGAUUGA [SS2: 1154] .
### Response 41.5

### Prompt Report apparent KD of MS2 coat protein under test system MS2 coat protein for UAAAAACAUGAGGAUCACCCAUGUGAGAACAUGGGAGGAUAUACAAGGACGAAAGUCAAGGUAGAAGGCCUAAAAU [Mat - Same State 1 - Mod - D175] .
### Response 29.3

### Prompt Report apparent KD of MS2 coat protein under test system MS2 coat protein for UAUAGACAUGAGGAUCACCCAUGUAGAAUUAUGGGAGGAUAUACAAAGACGAGAGUCAGAGUAGAAGGCCUAGGAC [salish99-ss1-155] .
### Response 49.6

### Prompt Report apparent KD of MS2 coat protein under test system MS2 coat protein for AAAAUACAUGAGGAUCACCCAUGUGAAAAUAUGGGAGGAUAUACCGAAAAAAAAAAAACGGUAGAAGGCCCUAAAA [SS! 1 MT 6] .
### Response 41.6

### Prompt Report apparent KD of MS2 coat protein under test system MS2 coat protein for CGAAAGGAGAGAGAGGAUAUCCAAAGGAAAACAUGAGGAUCACCCAUGUAGAAGGUAGGAGAUUGGGAGAAGGCUCAAGAGAGAA [salish99-ss2-146] .
### Response 25

====

# System: MS2 coat protein
# EXPERIMENT: apparent KD of MS2 coat protein; designed switch direction (-1 OFF switch, 1 ON switch): -1; higher = weaker reporter binding
# TEST_CONDITIONS: input ligand: FMN 200 uM
Classify as follows. Reported apparent KD of MS2 coat protein greater than or equal to 70 nM: rule met. Reported apparent KD of MS2 coat protein below: rule not met.

>  <SEQUENCE_STRING>
GUAAAUCAUGUAGGAUAUGCGUGGCGAAGCUAUGCAGAAGGACAUGAGGAUCACCCAUGUGCUUCCGUCUGAGAACAGACGGAA [Mat - Exclusion NG 1 - Mod of JL - D27] (Eterna round: R96, puzzle: Exclusion NG 1)

>  <EXPERIMENTAL_TARGET>
MS2 coat protein

>  <ASSIGNED_CATEGORY>
rule met

$$$$

Alright, here's another sequence for you.
### Prompt Assess whether reported apparent KD of MS2 coat protein for CUAACGAAAGGAUAUAUGGCAUGAGACAUGAGGAUCACCCAUGUGAACCACCUACAGUACAUAGAAGGUUCGCUAG [Eternabot (Original) Solution 18] (Eterna round: R97, puzzle: Exclusion 5) sits at 70 nM or higher.
### Response rule not met
